- targetOfAssay: Potassium-transporting ATPase (Sus scrofa)
- Sequence (P18434 whole entry): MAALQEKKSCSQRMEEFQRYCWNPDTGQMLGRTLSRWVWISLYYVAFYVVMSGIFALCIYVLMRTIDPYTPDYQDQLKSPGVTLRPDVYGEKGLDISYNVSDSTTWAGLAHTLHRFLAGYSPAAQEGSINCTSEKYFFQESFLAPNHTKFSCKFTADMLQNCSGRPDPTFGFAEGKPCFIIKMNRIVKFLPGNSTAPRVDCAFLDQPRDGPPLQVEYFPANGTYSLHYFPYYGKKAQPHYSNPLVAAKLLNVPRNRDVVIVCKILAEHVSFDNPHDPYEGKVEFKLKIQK
- Sequence (P19156 whole entry): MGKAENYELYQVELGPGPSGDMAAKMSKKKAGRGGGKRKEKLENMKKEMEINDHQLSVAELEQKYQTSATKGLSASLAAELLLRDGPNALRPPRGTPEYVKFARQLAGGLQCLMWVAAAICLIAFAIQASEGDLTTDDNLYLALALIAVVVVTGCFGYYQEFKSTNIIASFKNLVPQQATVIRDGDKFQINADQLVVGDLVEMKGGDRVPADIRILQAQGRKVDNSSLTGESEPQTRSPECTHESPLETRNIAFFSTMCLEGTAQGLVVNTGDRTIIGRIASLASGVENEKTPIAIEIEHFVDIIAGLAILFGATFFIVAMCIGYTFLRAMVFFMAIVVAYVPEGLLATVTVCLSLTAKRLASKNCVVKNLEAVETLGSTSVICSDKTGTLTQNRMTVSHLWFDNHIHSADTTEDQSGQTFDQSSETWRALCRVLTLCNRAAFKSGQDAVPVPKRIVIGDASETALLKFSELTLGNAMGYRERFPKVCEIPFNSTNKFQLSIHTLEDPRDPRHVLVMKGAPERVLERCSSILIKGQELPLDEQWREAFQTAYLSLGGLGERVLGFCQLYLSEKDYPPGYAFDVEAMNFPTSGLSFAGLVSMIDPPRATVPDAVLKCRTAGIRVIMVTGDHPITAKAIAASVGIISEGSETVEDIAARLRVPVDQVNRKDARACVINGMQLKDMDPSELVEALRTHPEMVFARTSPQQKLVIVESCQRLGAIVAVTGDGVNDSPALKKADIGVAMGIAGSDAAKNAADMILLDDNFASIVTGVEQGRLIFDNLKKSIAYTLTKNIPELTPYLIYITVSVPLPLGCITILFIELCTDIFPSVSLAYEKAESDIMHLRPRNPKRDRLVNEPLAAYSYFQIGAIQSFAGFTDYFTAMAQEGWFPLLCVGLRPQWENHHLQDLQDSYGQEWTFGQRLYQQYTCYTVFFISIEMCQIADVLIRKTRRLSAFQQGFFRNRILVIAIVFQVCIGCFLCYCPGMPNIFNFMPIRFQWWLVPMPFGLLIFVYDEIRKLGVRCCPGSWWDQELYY
- methodDescription: Inhibition of K+ stimulated gastric ATPase activity
pIC50: −log10 of the molar value.
observationType: pIC50

>>> result("Cc1ccccc1Nc1nc(NCCc2ccccc2)nc2ccccc12")
6.09

[P] COc1cccc2c(N(C)c3ccccc3)nc(N)nc12
[Q] COc1cccc2c(Nc3ccccc3C)nc(NCc3nccs3)nc12
Among P and Q , whose measured pIC50 is the smaller figure? Write the label of whichever entry you select.
Q

---

- targetOfAssay: Potassium-transporting ATPase (Rattus norvegicus) (UniProt P09626+P18598)
- methodDescription: Inhibition of pentagastrin stimulated gastric acid secretion in anesthetized rat 10 uM/kg, on iv administration of the compound.
- Type: functional, organism-based
- measurementParameters: Stomach
observationType: inhibition (%)

>>> result("Cc1cc(O)ccc1Nc1nc(N(C)c2ccccc2)c2ccccc2n1")
23

[A] COc1cccc2c(N(C)c3ccccc3C)nc(Nc3ccccc3C)nc12
[B] COc1ccc2nc(Nc3ccccc3C)nc(N(C)c3ccccc3)c2c1
[C] Cc1cc(Cl)ccc1Nc1nc(N(C)c2ccccc2)c2ccccc2n1
[D] Cc1cc(F)ccc1Nc1nc(N(C)c2ccccc2)c2cc(OCCCN3CCOCC3)ccc2n1
Falling order of inhibition, please. Provide the labels, sequenced as the question asks.
A, B, C, D
(A: 93%, B: 46%, C: 31%, D: 5%)

[a] Cc1ccccc1Nc1nc(N(C)c2ccccc2)c2cccc(OCCCN(C)C)c2n1
[b] COc1cccc2c(N(C)c3ccccc3)nc(Nc3ccc(F)cc3C)nc12
Exercise: compare a and b ; which one has the greater inhibition? Write the label of whichever entry you select.
b
(b: 94%, a: 49%)

The reported numbers originate from ChEMBL document CHEMBL1128472.
